tested target: Cellular tumor antigen p53 (Homo sapiens)
experiment notes: ATG_p53_CIS: Attagene CIS-FACTORIAL HepG2 Assay for human p53 Transcription Factor (AID 2282994)
measurement context: HepG2 p53 cis-element reporter, Attagene mRNA; actives raise or lower the signal
The source made the active and inactive calls. The calls were made as follows: active = hit-call score of the fitted dose curve at least 0.9, where 1 is the maximum; inactive = score below 0.9.
Possible outcomes: yes (active), no (inactive)

{"columns": ["compound", "assigned label"],
 "data": [
  ["Cc1ccc(C(C)C)c(O)c1", "no"],
  ["Nc1ccccc1N", "yes"],
  ["CCCCc1ccc2c(n1)[C@@H](c1ccc(OC)cc1C[C@H](C)C(=O)O)[C@H](C(=O)O)[C@H]2c1ccc2c(c1)OCO2", "no"],
  ["NCCO", "no"],
  ["O=C(OCCCCCOC(=O)c1ccccc1)c1ccccc1", "no"],
  ["CCCc1cc(=O)[nH]c(=S)[nH]1", "no"],
  ["Cc1ccc(C)c(O)c1C", "no"],
  ["CC(=O)OCCOCCOCCOC(C)=O", "no"],
  ["CC(=O)OC/C=C(\\C)CCC=C(C)C", "no"],
  ["CCCCN(CCCC)CCCC", "no"],
  ["OC[C@@H](O)[C@@H](O)[C@H](O)[C@H](O)CO", "no"],
  ["COC(=O)c1ccc(O)cc1", "no"],
  ["Cc1ccc(N(C)C)cc1", "no"],
  ["CCCCC(CC)COC(=O)CC(C(=O)OCC(CC)CCCC)S(=O)(=O)O (stereo unspecified)", "no"],
  ["Oc1ccc2ccccc2c1N=Nc1ccccc1", "no"],
  ["COc1ccc2c(c1)c(CC(=O)O)c(C)n2C(=O)c1ccc(Cl)cc1", "no"],
  ["CN[C@H]1CC[C@@H](c2ccc(Cl)c(Cl)c2)c2ccc(S(N)(=O)=O)cc21", "no"],
  ["C=CCc1ccc(O)c(OC)c1", "no"],
  ["Nc1ccc(S(=O)(=O)c2ccc(N)cc2)cc1", "no"],
  ["O=c1[nH]cc(F)c(=O)[nH]1", "yes"],
  ["CCOc1ccc2c(c1)C(C)=CC(C)(C)N2", "no"],
  ["O=c1c(O)c(-c2ccc(O)c(O)c2)oc2cc(O)cc(O)c12", "yes"],
  ["Cc1nc(-c2ccc3c(c2)CCN(CCC2CCC(NC(=O)/C=C/c4ccc(F)cc4)CC2)CC3)no1 (stereo unspecified)", "no"],
  ["NCC1(Cc2noc(=O)[nH]2)CCCCC1", "no"],
  ["Cc1c(C(=O)O)c(O)cc2c1C(=O)c1c(O)c([C@@H]3O[C@H](CO)[C@@H](O)[C@H](O)[C@H]3O)c(O)c(O)c1C2=O", "no"],
  ["FC(F)(F)C(F)(F)C(F)(F)C(F)(F)C(F)(F)C(F)(F)CCI", "no"],
  ["CCCCCCCCCCCCCO", "no"],
  ["CNCc1cc(F)ccc1Oc1ccc(Cl)c(Cl)c1", "no"],
  ["CN1CCCC1=O", "no"],
  ["Cc1cccc(Nc2cc(Cl)nc(SCC(=O)O)n2)c1C", "no"],
  ["CCNc1cccc(C)c1", "no"],
  ["CN1CCN(Cc2cc(-c3ccc4[nH]c(=O)oc4c3)co2)[C@@H](c2ccc(F)cc2)C1", "yes"],
  ["Cc1ccc(Cl)cc1", "no"],
  ["Cc1ccc(C)c(C)c1", "no"],
  ["COc1cc(C=O)ccc1O", "no"],
  ["CC(C)c1ccc(C(=O)N=C(N)N)cc1S(C)(=O)=O", "no"],
  ["Cc1oc(-c2ccccc2)nc1CCOc1cccc2c1ccn2CCC(=O)O", "no"],
  ["COc1cc(/C=C/C(=O)CC(=O)/C=C/c2ccc(O)c(OC)c2)ccc1O", "yes"],
  ["C[C@]12C=CC(=O)C=C1CC[C@@H]1[C@@H]2C(=O)C[C@@]2(C)[C@H]1CC[C@]2(O)C(=O)CO", "no"],
  ["CC1=C(/C=C/C(C)=C/C=C/C(C)=C/CO)C(C)(C)CCC1", "no"],
  ["CC1(C)NC(=O)NC1=O", "no"],
  ["Oc1ccc2c(c1)OC[C@@H](N1CCC(O)(c3ccc(F)cc3)CC1)[C@H]2O", "no"],
  ["CCOC(=O)C(C)(C)Oc1ccc(Cl)cc1", "no"],
  ["CCCCCCCCCCCC(=O)OC", "no"],
  ["Cc1nc(C)nc(N2C[C@@H](C)N(c3ccnc([C@@H](C)O)n3)[C@@H](C)C2)n1", "no"],
  ["COc1cc(-c2nc(NC(=O)c3cc4cc(C)cc(C)c4n3CC(=O)O)sc2CCC2CCCCC2)c(OC)cc1Cl", "no"],
  ["COc1ccc(S(=O)(=O)N2C(=O)[C@@](c3ccccc3OC)(N3C[C@H](O)C[C@H]3C(=O)N(C)C)c3cc(Cl)ccc32)c(OC)c1", "yes"],
  ["Cc1cccc([N+](=O)[O-])c1C", "no"],
  ["CCCCCCCCCCCCCCCC", "no"],
  ["Cc1cc(=O)[nH]c(=S)[nH]1", "no"],
  ["CCCCCCCCCCCCCCCCCC(=O)O", "no"]
]}
